Sourced from PubChem BioAssay (NCI)

TGI reference
test system: HOP-92 NSCLC; test: NCI tumour cell line growth inhibition, 48 h
Enter your answer as a number in µM; do not include the unit.

Answered examples (4):
>>> observed_result("CN1CC(CNC(=O)OCc2ccccc2)CC2c3cccc4c3c(cn4C)CC21 (stereo not drawn)")
5.95
>>> observed_result("COC(=O)[C@H](Cc1ccc(O)cc1)NC(=O)[C@@H](OC)[C@@H]1Cc2cc3cc(OC4CC(OC5CC(O)C(O)C(C)O5)C(O)C(C)O4)c(C)c(O)c3c(O)c2C(=O)[C@H]1OC1CC(OC2CC(OC3CC(C)(O)C(O)C(C)O3)C(O)C(C)O2)C(O)C(C)O1 (stereo partly drawn)")
7.15
>>> observed_result("C[C@H](CCCNCCCNCCCN)[C@H]1CC[C@H]2[C@@H]3[C@H](OCCCN)C[C@H]4C[C@H](OCCCN)CC[C@]4(C)[C@H]3C[C@H](OCCCN)[C@]12C")
11.9
>>> observed_result("CN(C)CCCNC(=O)c1cncnc1Nc1ccc(OCc2cccc(F)c2)c(Cl)c1")
3.16

Determine from records and report TGI for CCN(CC)CCCC(C)N=c1cc(Nc2cc(=NC(C)CCCN(CC)CC)c3cc(OC)ccc3o2)oc2ccc(OC)cc12 (stereo not drawn)
3.15

Determine from records and report TGI for COC(=O)/C=C\C(C#N)(C#N)N=Cc1ccc(Br)s1
4.67

====

tested on: HS 578T breast; experiment: NCI tumour cell line growth inhibition, 48 h; in the data active = GI50 below about 0.43 µM; inactive = the rest
Form entry, call: pick from true (1) (active), false (0) (inactive)

>>> label_class("O=C1c2ccccc2-c2c1c1c(O)cccc1n2-c1ccccc1")
"false (0)"
>>> label_class("O=S(=O)(Nc1cc(Cl)ccc1Cl)c1ccc(-c2cnc(C3CC3)o2)cc1")
"false (0)"
>>> label_class("COc1cnc2c(c1)C(=O)c1c-2n(CCCNC(C)C)c(=O)c2cc(F)ccc12")
"false (0)"
>>> label_class("S=C(N/N=C(/c1ccccc1)c1ccccn1)N1CCCCCC1")
"false (0)"
>>> label_class("COC(=O)[C@H](Cc1ccc(O)cc1)NC(=O)[C@@H](OC)[C@@H]1Cc2cc3cc(OC4CC(OC5CC(O)C(O)C(C)O5)C(O)C(C)O4)c(C)c(O)c3c(O)c2C(=O)[C@H]1OC1CC(OC2CC(OC3CC(C)(O)C(O)C(C)O3)C(O)C(C)O2)C(O)C(C)O1 (some centres undefined)")
"true (1)"
>>> label_class("O=C(NCc1ccncc1)C12CC3CC(C1)CC(c1ccc(Cl)cc1)(C3)C2")
"false (0)"

Status in this test for CC(=O)[C@@]1(O)[C@H](C)C[C@H]2[C@@H]3C=C(C)C4=Cc5c(cnn5-c5ccccc5)C[C@]4(C)[C@H]3[C@@H](O)C[C@@]21C ?
false (0)

Status in this test for CCCCN(CCCC)CCCn1c(=O)c2c3ccccc3n(C)c2n2nnc(-c3ccccc3)c12 ?
false (0)

Status in this test for Cc1cc(Oc2ccc3nc(COc4ccc(CC5SC(=O)NC5=O)cc4)n(C)c3c2)cc(C)c1N (centres undefined) ?
false (0)

====

system: M19-MEL melanoma; test: NCI tumour cell line growth inhibition, 48 h
attribute_measured: TGI

>>> observed_result("CNC(=O)c1cccc2c(Nc3ccc(NS(C)(=O)=O)cc3OC)c3cccc(C)c3nc12")
"8.54 µM"
>>> observed_result("O=S(O)CCCSSc1ccccc1")
"> 100 µM"
>>> observed_result("COc1c(C)cc2c(c1O)C1NC(C2)[C@H](O)N2C3COC(=O)[C@@]4(CS[C@@H](c5c(OC(C)=O)c(C)c6c(c53)OCO6)C12)NCCC1=C4NC2C=CC=CC12 (stereo partly drawn)")
"< 0.01 µM"
>>> observed_result("CC(C)(C)OC(=O)NC(CO)c1cccc(OCc2ccccc2)c1 (stereo not drawn)")
"> 100 µM"
>>> observed_result("Cc1ccc(C(=O)OCC(C)C)cc1N=NN(C)C")
"> 100 µM"

Determine from records and report TGI for c1ccc2c(c1)[nH]c1c2nc2ncccn21
> 100 µM

Determine from records and report TGI for Cc1nn(C)cc1P(=S)(c1ccccc1)c1ccccc1
> 100 µM

Determine from records and report TGI for O=c1[nH]cnc2c1CCCN2
> 100 µM

Determine from records and report TGI for CCOC(=O)/C(C#N)=C1/C(O)=C(C(=O)OC)C(C(=O)OC)=C1C(=O)OC
> 100 µM

Determine from records and report TGI for CCC[CH2][Sn]1([CH2]CCC)[O]C(=O)c2ccc(C)cc2[O]1
1.33 µM

Determine from records and report TGI for COc1cc(/C=C2\C(=O)N(C(=O)c3ccc(NC(C)=O)cc3)N=C2C)ccc1O
> 100 µM

Determine from records and report TGI for COc1ccc(OC)c(CC(C)N)c1 (stereo not drawn)
> 100 µM

Determine from records and report TGI for O=C(Oc1ccc(Cl)cc1[N+](=O)[O-])c1ccccc1
> 100 µM

====

system: MCF7 breast; test: NCI tumour cell line growth inhibition, 48 h; in the data active = GI50 below about 0.43 µM; inactive = the rest
Form entry, call: pick from True for active, False for inactive

Status in this test for CC1=C([Te]c2ccc(O)cc2)C(=O)c2ccccc2C1=O ?
False

Status in this test for COc1cnc2c(c1)C(=O)c1c-2n(CCCNC(C)C)c(=O)c2cc(F)ccc12 ?
True

Status in this test for Cc1ccc(-c2nc(N3CCCNCC3)c3oc(-c4ccccc4)nc3n2)cc1 ?
False

Status in this test for O=C(Nc1nc2ccc(F)cc2s1)c1cccnc1Nc1ccc(Cl)cc1 ?
False

====

test system: SK-MEL-5 melanoma; test: NCI tumour cell line growth inhibition, 48 h
attribute_measured: GI50

Determine from records and report GI50 for O=C(NCc1ccco1)c1ccc(NC2=C(Cl)C(=O)N(Cc3ccccc3)C2=O)cc1
27.4 µM

Determine from records and report GI50 for Cc1ncsc1-c1ccc(CNC(=O)[C@@H]2C[C@@H](O)CN2C(=O)[C@@H](NC(=O)C2(C#N)CC2)C(C)(C)C)cc1
> 100 µM

Determine from records and report GI50 for COc1ccc(-c2nc(N3CCN(C(=O)C4CCCCC4)CC3)c3c4c(sc3n2)CCCC4)cc1
68.9 µM

====

tested on: HOP-62 NSCLC; assay: NCI tumour cell line growth inhibition, 48 h
TGI reference

>>> observed_result("COc1cc(N(Cc2ccc3nc(OC)c(OC)nc3c2)Cc2ccc3nc(OC)c(OC)nc3c2)cc(OC)c1OC")
"> 50 µM"
>>> observed_result("CCOP(=O)(OCC)C(C(=O)OC)C(=O)C(=O)Nc1c(C)cc(Br)cc1C (stereo not given)")
"> 100 µM"
>>> observed_result("NS(=O)(=O)c1ccc(Nc2c3ccccc3nc3c(C(=O)NCCO)cccc23)cc1")
"0.443 µM"

Determine from records and report TGI for CC(C)(C)OC(=O)NC1CCC(C(C)(C)C)CC1 (stereo not given)
> 100 µM

Determine from records and report TGI for O=C(CCC(C(=O)c1ccccc1)c1ccccc1)c1ccccc1 (stereo not given)
> 100 µM

Determine from records and report TGI for [O-][n+]1onc2c1/C(=N/O)CCC2
> 100 µM

Determine from records and report TGI for OC1C2CCC1C1C3C=CC(C3)C21 (stereo not given)
> 100 µM

Determine from records and report TGI for Cc1ccc2[nH]c3c(c2c1)C1CCC(C(C)(C)C)CC1C1C(=O)N(c2ccc4c(c2)OCO4)C(=O)C31 (stereo not given)
4.24 µM

Determine from records and report TGI for C[n+]1ccc(-c2c3nc(c(-c4cc[n+](C)cc4)c4ccc([n-]4)c(-c4cc[n+](C)cc4)c4nc(c(-c5cc[n+](C)cc5)c5ccc2[n-]5)C=C4)C=C3)cc1.[I-].[Zn+2]
44.2 µM

Determine from records and report TGI for CC(=O)O[C@H]1C(=O)[C@@]2(C)[C@H]([C@H](OC(=O)c3ccccc3)[C@]3(O)C[C@H](OC(=O)[C@H](O)[C@@H](NC(=O)C(C)(C)C)c4ccccc4)C(C)=C1C3(C)C)[C@]1(OC(C)=O)CO[C@@H]1C[C@@H]2O
> 10 µM

Determine from records and report TGI for CC(C)SC(NC(=O)C1C(C)(C)CCC1(C)C)C(=O)O (stereo not given)
> 100 µM

Determine from records and report TGI for COc1cc(S(=O)(=O)Nc2nc(-c3ccc(N4C(=O)/C(=C/c5ccccc5[N+](=O)[O-])N=C4c4ccccc4)cc3)cs2)ccc1Cl
> 100 µM

Determine from records and report TGI for C[C@H]1[C@H]2[C@H]3CC[C@@H]4[C@@]5(C)C/C(=C/c6cccnc6)C(=O)C(C)(C)[C@@H]5CC[C@@]4(C)[C@]3(C)CC[C@]23CO[C@]1(C)[C@@H](C(=O)/C=C\c1cccnc1)C3
> 15 µM

Determine from records and report TGI for O=C(Nc1nc2ccc(F)cc2s1)c1cccnc1Nc1ccc(Cl)cc1
9.08 µM

Determine from records and report TGI for CN(Cc1ccccc1)C(=NC#N)N(C)Cc1ccccc1
> 100 µM

Determine from records and report TGI for c1ccc2c(c1)[nH]c1c2nc2ncccn21
> 100 µM

Determine from records and report TGI for COC(=O)c1c2c(cc3c1CC1(Cc4cc5c(cc4C1=O)CCC5)C3)CCC2 (stereo not given)
> 100 µM

Determine from records and report TGI for O=c1c2cc([N+](=O)[O-])ccc2nc2n1CCCCC2
> 100 µM

Determine from records and report TGI for CNC(=O)Oc1cc(C)c(/C=C/c2cncc(C(=O)NC)c2)c(C)c1
> 25 µM

Determine from records and report TGI for COC(=O)C1C2CC3C1C3C2C(=O)OC (stereo not given)
> 100 µM
